test system: tubulin (bovine brain); assay: tubulin polymerization end-point dOD, fold change relative to DMSO vehicle; higher = more polymerization (stabilization); details: 50 µM; 60 min; 37 °C
Catalogue of molecules with associated tubulin polymerization end-point dOD
Value Kind: tubulin polymerization end-point dOD (%)

>>> measured_value("COc1cccc(/C=C(/Cl)c2nc3cc(OC)c(OC)cc3c(=O)[nH]2)c1")
42.1
>>> measured_value("O=C(Nc1ncc(Cc2ccccc2Br)s1)c1cnccn1")
6.47
>>> measured_value("COc1cc(C(=O)Nc2ccc3c(c2)Nc2ccccc2CC3)cc(OC)c1OC")
-20.1
>>> measured_value("Cc1ccc(C(=O)CSc2nc3c(C)cccc3cc2C#N)cc1")
-15.2
>>> measured_value("O=C(Nc1ccc2c(c1)OCCO2)C(=O)Nc1cccc2cccnc12")
76
>>> measured_value("COC(=O)Nc1nc2cc(C(=O)c3ccccc3)ccc2[nH]1")
6.22
>>> measured_value("CCc1ccc2nc(SCC(=O)Nc3cc(C)ccc3C)c(C#N)cc2c1")
-12.2
>>> measured_value("COc1cccc(N2CCN(C(=O)c3cc(C4CC4)nc4ccccc34)CC2)c1")
-85.1
>>> measured_value("CC(=O)c1c(C)[nH]c(C(=O)Nc2ccc(N3CCCC3=O)cc2)c1C")
-9.36
>>> measured_value("Cc1cc2nc(-c3ccc(SCC#N)nc3)[nH]c2cc1C")
51.8
>>> measured_value("O=C(Nc1ncc(Cc2ccccc2Cl)s1)c1ccncc1")
-29.4

---

tubulin polymerization end-point dOD: recorded values
tested on: tubulin (bovine brain); assay: tubulin polymerization end-point dOD, fold change relative to DMSO vehicle; higher = more polymerization (stabilization); details: 50 µM; 60 min; 37 °C
Value Kind: tubulin polymerization end-point dOD (%)

>>> measured_value("O=C(Nc1ccc(N2CCCCCC2)cc1)C1COc2ccccc2C1 (stereo not given)")
37.7
>>> measured_value("O=c1[nH]c(/C=C/c2ccccc2F)nc2ccccc12")
21.3
>>> measured_value("COc1ccccc1NC(=O)CSc1nnc(-c2cc(OC)c(OC)c(OC)c2)n1C")
-33.1
>>> measured_value("COc1cccc(N2CCN(C(=O)c3cn(-c4ccccc4)nc3-c3cccnc3)CC2)c1")
-111
>>> measured_value("Cc1cc2cc3c(cc2nc1SCC(=O)Nc1c(C)cccc1C)OCO3")
145
>>> measured_value("COc1cccc(/C=N/NC(=O)c2ccc(N3CCCC3=O)cc2)c1")
11.9
>>> measured_value("O=C(Nc1ccc(Cl)cc1)N(Cc1cc2cc3c(cc2[nH]c1=O)OCCO3)CC1CCCO1 (stereo not given)")
-20.7
>>> measured_value("CN(C)c1ncc(C(=O)Nc2ccc(Oc3ccc4c(c3)OCO4)cc2)cn1")
8.04
>>> measured_value("COc1ccc2cc(CN(Cc3cccs3)C(=O)Nc3ccccc3OC)c(=O)[nH]c2c1")
17.1
>>> measured_value("CCc1ccccc1NC(=O)CSc1nc2cc3c(cc2cc1C#N)OCCO3")
-23.9

---

Overview of recorded tubulin polymerization end-point dOD for various compounds
system: tubulin (bovine brain); test: tubulin polymerization end-point dOD, fold change relative to DMSO vehicle; higher = more polymerization (stabilization); conditions: 50 µM; 60 min; 37 °C
Value Kind: tubulin polymerization end-point dOD (%)

>>> measured_value("O=C(Nc1ncc(Cc2ccccc2)s1)c1sc2ccccc2c1Cl")
-14.2
>>> measured_value("O=C(Nc1ncc(Cc2ccc(Cl)cc2Cl)s1)c1cnccn1")
6.51
>>> measured_value("Cc1cccc(/C=N/N=C2\\NC(=O)C(Cc3cccc(C)c3)S2)c1 (stereo unspecified)")
9.8
>>> measured_value("COc1ccc(/C=N/NC(=O)c2cccc(F)c2)cc1Br")
-16.1
>>> measured_value("O=C1N/C(=N/N=C/c2ccccc2O)SC1Cc1cc(C(F)(F)F)ccc1Cl (stereo unspecified)")
-23
>>> measured_value("COc1cc(-c2onc3ccc(Cl)cc23)cc(OC)c1OC")
95.2
>>> measured_value("CC(=O)N1c2ccc(NC(=O)c3cc4cccc(C)c4nc3C)cc2CC1C (stereo unspecified)")
0.65
>>> measured_value("COc1ccccc1NC(=S)N(Cc1ccccc1)Cc1cc2ccc(C)cc2[nH]c1=O")
272
>>> measured_value("O=C(Nc1nc2ccccc2[nH]1)c1cccc2ccccc12")
-76.4
>>> measured_value("CCCC(NC(=O)c1cnc(SC)nc1)c1ccc2c(c1)OCCO2 (stereo unspecified)")
2.16
>>> measured_value("O=C(Nc1ncc(Cc2ccc(Cl)cc2)s1)c1cnccn1")
-97.6

---

// reported tubulin polymerization end-point dOD per item
system: tubulin (bovine brain); assay: tubulin polymerization end-point dOD, fold change relative to DMSO vehicle; higher = more polymerization (stabilization); settings: 50 µM; 60 min; 37 °C
Value Kind: tubulin polymerization end-point dOD (%)

>>> measured_value("COc1ccc(/C(C)=N/Nc2cc[nH+]c3cc(Cl)ccc23)cc1OC")
3.81
>>> measured_value("CCc1ccccc1NC(=O)CSc1nc2cc3c(cc2cc1CC)OCO3")
-65
>>> measured_value("Cc1cnc(C(=O)Nc2ncc(Cc3ccc(C#N)cc3)s2)cn1")
-30.4
>>> measured_value("CC1Oc2nc3ccccc3cc2CN(Cc2ccc(F)cc2)C1=O (stereo unspecified)")
3.19
>>> measured_value("O=c1c(Cl)c(N2CC=C(c3ccccc3)CC2)cnn1-c1nc2ccccc2[nH]1")
-22.9
>>> measured_value("CCc1ccccc1NC(=S)N(CCCO)Cc1cc2cc(C)cc(C)c2[nH]c1=O")
-51.6
>>> measured_value("Cc1ccc2[nH]c(=O)c(CN(CC3COCCO3)C(=O)Nc3ccccc3Cl)cc2c1 (stereo unspecified)")
23.1
>>> measured_value("CCOc1c(Cl)cc(C(=O)N2CCN(c3cccc(C)c3)CC2)cc1OC")
-52.8
>>> measured_value("COc1ccc2cc(CN(Cc3ccco3)C(=O)c3cccs3)c(=O)[nH]c2c1")
91.2
>>> measured_value("Cc1ccc2nc(NC(=O)c3cc(Br)c[nH]3)sc2c1")
-51.9
>>> measured_value("Cc1ccc(/C=N/NC(=O)C2COc3ccccc3O2)s1 (stereo unspecified)")
5.76

---

test system: tubulin (bovine brain); assay: tubulin polymerization end-point dOD, fold change relative to DMSO vehicle; higher = more polymerization (stabilization); conditions: 50 µM; 60 min; 37 °C
Examples of compounds with documented tubulin polymerization end-point dOD follow.
Value Kind: tubulin polymerization end-point dOD

>>> measured_value("COc1ccc2cc(CNc3ncnc4[nH]ncc34)ccc2c1")
"-12.6%"
>>> measured_value("COc1ccc(-n2nnnc2SCc2cc3c(cc2Br)OCO3)cc1")
"-14.8%"
>>> measured_value("CCC(C)Cc1c(C)sc2nc(SCc3nnc(C)o3)[nH]c(=O)c12 (configuration not stated)")
"-13.9%"
>>> measured_value("COc1ccc(Cl)cc1NC(=O)C1CCCN1C(=O)Nc1ccccc1OC (configuration not stated)")
"-2.01%"
>>> measured_value("O=C(Nc1ccc(N2CCCC2)cc1)C1COc2ccc(Cl)cc2C1 (configuration not stated)")
"19.2%"
>>> measured_value("COc1ccc2nc(/C=C/c3cccnc3)sc2c1")
"-29.9%"
>>> measured_value("CCOC(=O)Nc1nc2ccccc2[nH]1")
"0.459%"
>>> measured_value("O=C(Nc1ncc(Cc2ccccc2)s1)c1cc(Br)c[nH]1")
"2.89%"
>>> measured_value("N#Cc1cc2cc3c(cc2nc1SCC(=O)Nc1ccccc1Cl)OCCO3")
"17.2%"
>>> measured_value("Cc1cccc2cc(C#N)c(SCC(=O)c3ccc(F)cc3)nc12")
"-11.1%"
>>> measured_value("COc1cc(CNc2ccc(Br)cc2)cc(OC)c1OC")
"-37.3%"
>>> measured_value("Cc1ccc(C)c(NC(=O)CSc2nc3cc4c(cc3cc2C#N)OCO4)c1")
"52.6%"

---

tubulin polymerization end-point dOD reference
tested on: tubulin (bovine brain); assay: tubulin polymerization end-point dOD, fold change relative to DMSO vehicle; higher = more polymerization (stabilization); conditions: 50 µM; 60 min; 37 °C
Value Kind: tubulin polymerization end-point dOD (%)

>>> measured_value("Cc1cccc(N2CCN(C(=O)c3cc(Cl)ccc3Cl)CC2)c1")
-45.7
>>> measured_value("Cc1cccc2cc3c(N)c(C(=O)Nc4ccccc4N4CCOCC4)sc3nc12")
411
>>> measured_value("COc1ccc2cc(CN(Cc3ccco3)C(=O)Nc3ccccc3OC)c(=O)[nH]c2c1")
43.9
>>> measured_value("N#Cc1ccc(N2CC[NH+](Cc3ccc(-c4ccccc4Cl)s3)CC2)nc1")
-56.2
>>> measured_value("COc1cn(-c2ccccc2)nc1C(=O)N1CCc2ccccc21")
-57.4
>>> measured_value("COc1ccc(C2(C(=O)NC(C)c3nc(-c4ccncc4)n[nH]3)CC2)cc1 (stereo not given)")
-41.3
>>> measured_value("COc1ccc2cc(CN(Cc3cccs3)C(=O)Nc3ccccc3Cl)c(=O)[nH]c2c1")
-57.2
>>> measured_value("CC(C)n1ncc2cc(C(=O)Nc3cccc4c3CCCC4)cnc21")
-23.5
>>> measured_value("Cc1cnc(C(=O)Nc2ncc(Cc3cccc(C)c3Cl)s2)cn1")
-85.7
>>> measured_value("Cc1cnc(C(=O)Nc2ncc(Cc3ccc(C)c(Cl)c3)s2)cn1")
-19.2
>>> measured_value("COc1cc2c(cc1OC)C(c1cccs1)[NH+](CC(O)c1ccccc1)CC2 (stereo not given)")
-40.4
>>> measured_value("Cc1cc2cc3c(cc2nc1SCC(=O)NC(C)(C)C)CCC3")
63.4
>>> measured_value("COc1ccc(CNc2c(-c3ccccc3O)nc3cnccn23)cc1")
0.31
>>> measured_value("Cc1cc2cc3c(cc2nc1SCC(=O)Nc1ccccc1Br)OCO3")
-1.3
>>> measured_value("C/C(=N\\NC(=O)c1cccc(F)c1)c1ccc(Br)s1")
9.02
>>> measured_value("Cc1ccc2cc(CN(CC3CCCO3)C(=S)Nc3ccccc3)c(=O)[nH]c2c1 (stereo not given)")
0.1
>>> measured_value("Cc1ccc(C)c(NC(=O)CSc2nc3ccc(C(C)C)cc3cc2C#N)c1")
-39.1
>>> measured_value("Cc1ccc(/C=N\\NC(=O)COc2ccccc2Br)c(C)c1")
-56.5
>>> measured_value("CS(=O)(=O)c1ccc(C(=O)Nc2ncc(Cc3cccc(Cl)c3Cl)s2)cc1")
-8.57
>>> measured_value("CC1Cc2ccccc2N1C(=O)CSc1nnc(-c2cc3ccccc3cc2O)n1C (stereo not given)")
-10.6
>>> measured_value("CCN(CC)c1ccc(NC(=O)C2CC=CCC2)cc1 (stereo not given)")
-23.9
>>> measured_value("CCS(=O)(=O)N1CCc2cc(C(=O)Cn3cnc4sc(C)c(-c5ccccc5)c4c3=O)ccc21")
38.3
>>> measured_value("CCC1c2ccsc2CC[NH+]1Cc1ccc(N2CCCC2=O)cc1 (stereo not given)")
-43.7
>>> measured_value("Oc1ccccc1-c1nc2cnccn2c1NCc1ccc2c(c1)OCO2")
-6.54
>>> measured_value("COc1ccc2nc(/C=C/c3cccc(F)c3)sc2c1")
6.83
>>> measured_value("COc1ccc(Cl)cc1NC(=O)CSc1nnc(-c2ccncc2)n1-c1ccccc1")
-50.9
>>> measured_value("Nc1c(C(=O)c2ccccc2)sc2nc3c(cc12)CCCC3")
59.7
>>> measured_value("COc1cccc2sc(NC(=O)C3CN(C(C)=O)c4ccccc4O3)nc12 (stereo not given)")
-38.1
>>> measured_value("COc1ccc2nc(SCC(=O)NCCc3ccc(OC)c(OC)c3)c(C)cc2c1")
-15
>>> measured_value("O=C(N/N=C/c1cccs1)c1n[nH]c2c1CCC2")
12.9
>>> measured_value("CCc1ccccc1NC(=O)CSc1nc2cc3c(cc2cc1C#N)OCO3")
56.6
>>> measured_value("O=C(Nc1ccc(N2CCc3sccc3C2)nc1)c1ccccc1F")
-40.4
>>> measured_value("Cc1ccc(C(=O)Nc2nc3ccc(Cl)cc3s2)cn1")
-82.9
>>> measured_value("CCc1nnc(NC(=O)CSc2cc(C)c3cc(C)cc(C)c3n2)s1")
19.7
>>> measured_value("O=C(Nc1ncc(Cc2ccc(Cl)cc2)s1)c1cccnc1")
7.93
>>> measured_value("Cc1ccc(C(=O)Nc2ncc(Cc3ccccc3Br)s2)cn1")
-35.9
>>> measured_value("CN(C)c1ccc(/C=N/NC(=O)c2cccc(F)c2)cc1")
27.6
>>> measured_value("Cc1cccc2cc3c(N)c(C(=O)N4CCCc5ccccc54)sc3nc12")
-46.4
>>> measured_value("CC(=O)c1c(C)cc(C)c(CSc2nnc(-c3ccc(F)cc3)n2C)c1C")
-75.9
>>> measured_value("Cc1ccc(NC(=O)CSc2nc3cc4c(cc3cc2C#N)OCCO4)c(C)c1")
-24.1
>>> measured_value("COc1ccc(NC(=O)CSc2nc3cc4c(cc3cc2C#N)OCO4)c(OC)c1")
23.6
>>> measured_value("Cc1cc2ccccc2n2c(=O)n(CC(C)NC(=O)c3cnn(C)c3C)nc12 (stereo not given)")
-1.81
>>> measured_value("Cc1ccc2cc(C#N)c(SCC(=O)c3ccccc3)nc2c1")
-46.9
>>> measured_value("O=C(Nc1ccc2c(c1)OCCO2)C(=O)Nc1cccc2ncccc12")
-9.86
>>> measured_value("Cc1cc2nc(/C=C/c3cccnc3)sc2cc1C")
-34.3

Data provenance: the supplement of paper PMC4380459
